Test system: Mtb H37Rv
Experiment: Minimum inhibitory concentration, broth microdilution, whole-cell activity
Format: cell-based, Mycobacterium tuberculosis
Settings: Mycobacterium tuberculosis, H37RV, read-out: MIC 7H9/palmitate, Mtb H37Rv, 7H9/palmitate medium
As shown below, each of these molecules has a reported MIC value.

Please look at `NCCCCCCCCCCCC(=O)NS(=O)(=O)OC[C@H]1O[C@@H](n2cnc3c(N)ncnc32)[C@H](O)[C@@H]1O` and tell me its recorded MIC on Mtb H37Rv. 12.5 to 25 µM

Please look at `CCCCCCCCCC[C@H](C)C(=O)NS(=O)(=O)OC[C@H]1O[C@@H](n2cnc3c(N)ncnc32)[C@H](O)[C@@H]1O` and tell me its recorded MIC on Mtb H37Rv. > 100 µM

Continuing:
Please look at `COC(=O)CCCCCCCCCCC(=O)NS(=O)(=O)OC[C@H]1O[C@@H](n2cnc3c(N)ncnc32)[C@H](O)[C@@H]1O` and tell me its recorded MIC on Mtb H37Rv. > 100 µM

Please look at `CCCCC/C=C\CCCC(=O)NS(=O)(=O)OC[C@H]1O[C@@H](n2cnc3c(N)ncnc32)[C@H](O)[C@@H]1O` and tell me its recorded MIC on Mtb H37Rv. 100 µM

Please look at `CCCCCCCCCOCC(=O)NS(=O)(=O)OC[C@H]1O[C@@H](n2cnc3c(N)ncnc32)[C@H](O)[C@@H]1O` and tell me its recorded MIC on Mtb H37Rv. 25 to 50 µM

Please look at `CCCCCCCCCCC(C)(C)C(=O)NS(=O)(=O)OC[C@H]1O[C@@H](n2cnc3c(N)ncnc32)[C@H](O)[C@@H]1O` and tell me its recorded MIC on Mtb H37Rv. > 100 µM

Please look at `Nc1ncnc2c1ncn2[C@@H]1O[C@H](COS(=O)(=O)NC(=O)CCCCCCCCCCC(=O)O)[C@@H](O)[C@H]1O` and tell me its recorded MIC on Mtb H37Rv. > 100 µM

Please look at `CCCCCCCCCC[C@@H](C)C(=O)NS(=O)(=O)OC[C@H]1O[C@@H](n2cnc3c(N)ncnc32)[C@H](O)[C@@H]1O` and tell me its recorded MIC on Mtb H37Rv. > 100 µM

----------
Let's go through some recorded Ki values for FACL19 (Mycobacterium tuberculosis, UniProt P9WQ51) together.

Please supply the value of reported Ki for the item CCCCCCCCCCC(C)(C)C(=O)NS(=O)(=O)OC[C@H]1O[C@@H](n2cnc3c(N)ncnc32)[C@H](O)[C@@H]1O [Compound 35] 54.7 µM

Please supply the value of reported Ki for the item Nc1ncnc2c1ncn2[C@@H]1O[C@H](COS(=O)(=O)NC(=O)CCCCCCCCCCC(=O)O)[C@@H](O)[C@H]1O [Compound 31] > 100 µM

Please supply the value of reported Ki for the item COC(=O)CCCCCCCCCCC(=O)NS(=O)(=O)OC[C@H]1O[C@@H](n2cnc3c(N)ncnc32)[C@H](O)[C@@H]1O [Compound 30] > 100 µM

Continuing:
Please supply the value of reported Ki for the item CCCCCCCCCCCCCCCC(=O)NS(=O)(=O)OC[C@H]1O[C@@H](n2cnc3c(N)ncnc32)[C@H](O)[C@@H]1O [Compound 18, 5′-O-[N-(Palmitoyl)sulfamoyl]adenosine] 3.2 µM
